# target-of-assay: furin, P09958;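 further: purified furin at 1:10 enzyme:substrate in 50 mM HEPES pH 7.5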
# Sequence (P09958 whole entry): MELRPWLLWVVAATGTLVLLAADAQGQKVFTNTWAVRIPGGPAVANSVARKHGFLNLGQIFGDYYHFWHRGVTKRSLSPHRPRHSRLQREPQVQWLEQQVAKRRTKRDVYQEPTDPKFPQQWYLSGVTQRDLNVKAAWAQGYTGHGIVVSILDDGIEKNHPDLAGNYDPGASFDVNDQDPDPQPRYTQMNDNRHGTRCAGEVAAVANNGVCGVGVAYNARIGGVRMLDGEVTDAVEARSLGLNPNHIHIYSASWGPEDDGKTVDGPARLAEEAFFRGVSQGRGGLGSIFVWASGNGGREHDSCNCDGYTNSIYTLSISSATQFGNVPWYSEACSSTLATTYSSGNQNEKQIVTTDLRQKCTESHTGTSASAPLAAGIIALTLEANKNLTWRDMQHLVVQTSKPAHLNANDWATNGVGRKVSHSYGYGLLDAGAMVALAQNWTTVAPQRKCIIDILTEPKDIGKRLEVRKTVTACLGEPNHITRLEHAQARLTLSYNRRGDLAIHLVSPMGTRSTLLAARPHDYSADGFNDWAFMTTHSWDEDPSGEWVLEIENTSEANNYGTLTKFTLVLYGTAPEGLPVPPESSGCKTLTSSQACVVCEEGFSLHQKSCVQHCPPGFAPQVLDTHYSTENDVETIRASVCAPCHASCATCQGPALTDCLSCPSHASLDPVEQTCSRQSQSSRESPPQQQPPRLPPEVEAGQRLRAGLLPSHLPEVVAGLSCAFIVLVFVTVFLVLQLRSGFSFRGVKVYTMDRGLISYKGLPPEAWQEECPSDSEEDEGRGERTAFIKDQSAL
# protocol-details: furin cleavage Z-score vs untreated control; higher = more cleavage, active = 3.5 or more, inactive = 1 or less, 8 variable residues between constant flanks
# details: 7.5 min
This is one part of the list. How many sequences the whole screen found active is unknown.
readout: furin cleavage Z-score

> print(dat)
               ordered.residues                 readout       assay.value
1  CALLARDRRQAGNASASA [FS-1025]  furin cleavage Z-score     6.87 (active)
2   CAHCTTPCSGAGNASASA [HC1955]  furin cleavage Z-score  -1.08 (inactive)
3   CAADVVCCSMAGNASASA [HC2103]  furin cleavage Z-score              1.06
4    CALLADARVCAGNASASA [HC523]  furin cleavage Z-score   0.91 (inactive)
5    CALAALAAYCAGNASASA [HC994]  furin cleavage Z-score  0.554 (inactive)
6   CAEVPCHRESAGNASASA [HC2392]  furin cleavage Z-score  0.318 (inactive)
7    CATGWLAGLFAGNASASA [HC378]  furin cleavage Z-score                 1
